This collection of values is drawn from ChEMBL document CHEMBL5131472.

System: Influenza A virus
Experiment: Antiviral activity against Influenza A virus A/WSN/33(H1N1) infected in dog MDCK cells assessed as reduction in viral titer in supernatants incubated for 24 hrs by plaque assay
Format: functional, organism-based
pIC50: −log10 of the molar value.
Class key for pIC50 values: low bin (below 6), mid bin (6 to below 7), high bin (7 or more)

Observe how each entry below is paired with its result.
[
  {
    "Cpd smiles": "CSc1ncnc2c([C@@H]3O[C@H](CO)[C@@H](O)[C@]3(C)O)n[nH]c12",
    "Label value": "mid bin"
  },
  {
    "Cpd smiles": "CCSc1ncnc2c([C@@H]3O[C@H](CO)[C@@H](O)[C@H]3O)n[nH]c12",
    "Label value": "mid bin"
  },
  {
    "Cpd smiles": "CSc1nc(SC)c2[nH]nc([C@@H]3O[C@H](CO)[C@@H](O)[C@H]3O)c2n1",
    "Label value": "low bin"
  },
  {
    "Cpd smiles": "C=CCSc1ncnc2c([C@@H]3O[C@H](CO)[C@@H](O)[C@H]3O)n[nH]c12",
    "Label value": "mid bin"
  },
  {
    "Cpd smiles": "Nc1ncnc2c([C@@H]3O[C@H](CO)[C@@H](O)[C@H]3O)[nH]nc12",
    "Label value": "high bin"
  }
]

Turning now to a further record.
Which category does the recorded pIC50 put `OC[C@H]1O[C@@H](c2n[nH]c3c(SC(F)(F)F)ncnc23)[C@H](O)[C@@H]1O` in?
mid bin

----------
Quick list: CC50 at 48 h per entry.
Experiment: Cytotoxicity against dog MDCK cells assessed as reduction in cell viability incubated for 48 hrs by CellTiter96 Aqueous one solution assay
Assay type: toxicity, cell-based, Canis lupus familiaris
Answer with a number only, understood to be in µM.

Some solved entries appear below for comparison.
[
  {
    "Cpd smiles": "CSc1ncnc2c([C@H]3C=C[C@@H](CO)O3)n[nH]c12",
    "Unit tag": "µM",
    "Meas value": 190
  },
  {
    "Cpd smiles": "CN[C@H]1[C@H](O)[C@@H](CO)O[C@H]1c1n[nH]c2c(SC)ncnc12",
    "Unit tag": "µM",
    "Meas value": 49
  },
  {
    "Cpd smiles": "OC[C@H]1O[C@@H](c2n[nH]c3c(N4CCCC4)ncnc23)[C@H](O)[C@@H]1O",
    "Unit tag": "µM",
    "Meas value": 211
  },
  {
    "Cpd smiles": "CCCCSc1ncnc2c([C@@H]3O[C@H](CO)[C@@H](O)[C@H]3O)n[nH]c12",
    "Unit tag": "µM",
    "Meas value": 238
  },
  {
    "Cpd smiles": "CNc1ncnc2c([C@@H]3O[C@H](CO)[C@@H](O)[C@H]3O)n[nH]c12",
    "Unit tag": "µM",
    "Meas value": 1.5
  }
]

Need CC50 at 48 h of `CCNc1ncnc2c([C@@H]3O[C@H](CO)[C@@H](O)[C@H]3O)n[nH]c12` , thanks.
5.7

Need CC50 at 48 h of `COc1ncnc2c([C@@H]3O[C@H](CO)[C@@H](O)[C@H]3O)n[nH]c12` , thanks.
1.2

----------
Experiment: Cytotoxicity against dog MDCK cells assessed as reduction in cell viability incubated for 48 hrs by CellTiter96 Aqueous one solution assay
Assay type: toxicity, cell-based, Canis lupus familiaris
hey, just use Met if measured CC50 at 48 h is less than 300 µM, otherwise Not met

[
  {
    "Cpd smiles": "CSc1ncnc2c([C@@H]3O[C@H](CO)C[C@H]3O)n[nH]c12",
    "Label value": "Not met"
  },
  {
    "Cpd smiles": "CC(C)Nc1ncnc2c([C@@H]3O[C@H](CO)[C@@H](O)[C@H]3O)n[nH]c12",
    "Label value": "Not met"
  },
  {
    "Cpd smiles": "OC[C@H]1O[C@@H](c2n[nH]c3c(NCCl)ncnc23)[C@H](O)[C@@H]1O",
    "Label value": "Met"
  }
]

Strictly below 300 µM: is that where CC50 at 48 h of `OC[C@H]1O[C@@H](c2n[nH]c3c(S)ncnc23)[C@H](O)[C@@H]1O` sits?
Not met

Strictly below 300 µM: is that where CC50 at 48 h of `OC[C@H]1O[C@@H](c2n[nH]c3c(-n4cncn4)ncnc23)[C@H](O)[C@@H]1O` sits?
Met

Strictly below 300 µM: is that where CC50 at 48 h of `OC[C@H]1O[C@@H](c2n[nH]c3c(N4CCCCC4)ncnc23)[C@H](O)[C@@H]1O` sits?
Met

Strictly below 300 µM: is that where CC50 at 48 h of `OC[C@H]1O[C@@H](c2n[nH]c3c(SC(F)(F)F)ncnc23)[C@H](O)[C@@H]1O` sits?
Met

Strictly below 300 µM: is that where CC50 at 48 h of `OC[C@H]1O[C@@H](c2n[nH]c3c([SeH])ncnc23)[C@H](O)[C@@H]1O` sits?
Met
